Exercise: state measured cAMP production EC50 for each of the binders provided.
Target: T1, GLP-1 receptor
T1 chain: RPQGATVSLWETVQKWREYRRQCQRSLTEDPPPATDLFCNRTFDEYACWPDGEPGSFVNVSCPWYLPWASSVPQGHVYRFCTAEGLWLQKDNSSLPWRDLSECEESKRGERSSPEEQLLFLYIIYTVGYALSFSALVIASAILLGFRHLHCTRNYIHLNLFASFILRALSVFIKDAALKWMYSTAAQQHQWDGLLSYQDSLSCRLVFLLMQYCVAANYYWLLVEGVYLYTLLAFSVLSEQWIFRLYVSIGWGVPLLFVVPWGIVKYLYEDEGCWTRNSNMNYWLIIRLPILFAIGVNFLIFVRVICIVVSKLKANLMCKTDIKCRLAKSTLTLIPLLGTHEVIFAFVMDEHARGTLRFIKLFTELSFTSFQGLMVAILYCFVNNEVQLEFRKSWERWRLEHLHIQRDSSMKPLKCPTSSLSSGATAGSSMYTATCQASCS
Test: cell-based or functional assay
Please make sure the unit comes right after the number.

Could you tell me cAMP production EC50 for each of these binders? They are listed below.
1. SLLHWTHKIPALFNPRGSHAEGTFTSDVSSYLEGQAAKEFIAWLVKGRG (ABP-LK-GLP fusion polypeptide; also called ABP-LK-GLP) [M8.3 fusion polypeptide]
2. PNICLPRWGCLWDFNPRGAHAEGTFTSDVSSYLEGQAAKEFIAWLVKGRG (ABP-LK-GLP fusion polypeptide; also called ABP-LK-GLP) [DP4.1 fusion polypeptide]
3. PSLLHWTHKIPALFNPRGPHAEGTFTSDVSSYLEGQAAKEFIAWLVKGRG (ABP-LK-GLP fusion polypeptide; also called ABP-LK-GLP) [DP8.2 fusion polypeptide]
4. PLPHSHRAHSLPPFNPRGAHAEGTFTSDVSSYLEGQAAKEFIAWLVKGRG (ABP-LK-GLP fusion polypeptide; also called ABP-LK-GLP) [DP6.1 fusion polypeptide]
5. PLPHSHRAHSLPPFNPRGPHAEGTFTSDVSSYLEGQAAKEFIAWLVKGRG (ABP-LK-GLP fusion polypeptide; also called ABP-LK-GLP) [DP6.2 fusion polypeptide]
6. LPHSHRAHSLPPFNPRGPHAEGTFTSDVSSYLEGQAAKEFIAWLVKGRG (ABP-LK-GLP fusion polypeptide; also called ABP-LK-GLP) [M6.2 fusion polypeptide]

1. 21 nM
2. 19 nM
3. 22 nM
4. 23 nM
5. 23 nM
6. 21 nM
